molecular target: MORF DPF domain (residues 211–322) F287A (human, UniProt Q8WYB5 211-322, F287A); experiment: NMR
Sequence (Q8WYB5 211-322 F287A): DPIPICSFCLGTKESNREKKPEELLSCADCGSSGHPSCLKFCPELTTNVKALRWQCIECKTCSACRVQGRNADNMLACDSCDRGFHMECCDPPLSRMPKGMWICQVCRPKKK
Metric name: pKd
pKd is a log-scale quantity: -log10 of the concentration expressed in molar.

Req: Could you tell me which pKd is on file for ARTKQTARKSTGGKAPRKQ [unmodified histone H3 peptide (residues 1–19 of H3)] ?
Resp: 2.10
